I'd appreciate it if you could supply Phage binding ELISA signal, Anti-PSMA Fab with PSMA antigen values for the items below.
- targetOfAssay: T1, PSMA Fab (006 PSMA Fab)
- T1 construct: also called Anti-PSMA Fab
- assayDetails: phage binding ELISA; PSMA Fab wells pre-incubated with PSMA antigen as competitor, anti-M13 HRP detection
Where no end group is shown, it is not given here.
// return a plain number; no unit text

Provide Phage binding ELISA signal, Anti-PSMA Fab with PSMA antigen value for the following binder: MDRMCVPEWMCYVF [Phage-3173]
0.0741

Provide only the value of recorded Phage binding ELISA signal, Anti-PSMA Fab with PSMA antigen for YEPVCRPAWMCIGF [Phage-3177]
0.0622

Assign Phage binding ELISA signal, Anti-PSMA Fab with PSMA antigen to the following record: GEVFCIPAWMCAGF (cysteine pairing not given here; also: fused to phage pIII, fusion site not given here) [Phage-3171]
0.107

Look up and state reported Phage binding ELISA signal, Anti-PSMA Fab with PSMA antigen for HERECIPRWMCTGF [Phage-3180]
0.065

Check the records and state Phage binding ELISA signal, Anti-PSMA Fab with PSMA antigen for YPSMCKPLWMCQGF [Phage-3175]
0.111

Indicate its recorded Phage binding ELISA signal, Anti-PSMA Fab with PSMA antigen; the binder in question is GVSMCIPAWMCQGF [Phage-3181]
0.0737

Please report the measured Phage binding ELISA signal, Anti-PSMA Fab with PSMA antigen for VTAKCVPEWMCTGF [Phage-3174]
0.0968

Look up and report measured Phage binding ELISA signal, Anti-PSMA Fab with PSMA antigen for this entry: MVRLCEPEWMCTGF [Phage-3184]
0.116

Using the record for EGAICKPEWMCKGF [Phage-3183] , state its measured Phage binding ELISA signal, Anti-PSMA Fab with PSMA antigen.
0.0737

Respond only with Phage binding ELISA signal, Anti-PSMA Fab with PSMA antigen recorded for VTRMCVPEWMCSGI [Phage-3176]
0.0628

Identify Phage binding ELISA signal, Anti-PSMA Fab with PSMA antigen associated with the binder IQILCTPTWMCVGF [Phage-3182]
0.0781

Note down Phage binding ELISA signal, Anti-PSMA Fab with PSMA antigen recorded for YEQACQPPWMCLGF [Phage-3178]
0.0671

For the binder ANLLCIPNWMCSGF [Phage-3172] , report Phage binding ELISA signal, Anti-PSMA Fab with PSMA antigen.
0.0969

Give the value of Phage binding ELISA signal, Anti-PSMA Fab with PSMA antigen reported for the following: YMMICRPAWMCSGL [Phage-3179]
0.116
